- System: SNB-19
- assay_info: NCI tumour cell line growth inhibition, 48 h
Active and inactive are the calls of the source. Rule as the data show it: active = GI50 up to about 1.1 µM and inactive = higher.
measured_metric: GI50

Examples from the recorded data:
Cc1ccc(SC(=O)N2C(=S)N=C(NC3CCCCC3)C23CCCCC3)cc1
> 100 µM (inactive)
CC1=C(C(=O)Nc2ccccc2C)C(c2ccc(C3C(C(=O)Nc4ccccc4C)=C(C)NC(C)=C3C(=O)Nc3ccccc3C)cc2)C(C(=O)Nc2ccccc2C)=C(C)N1
11.9 µM (inactive)
C=CCN(c1cc(OC)c2[nH]c(C(=O)O)c(C)c2c1[N+](=O)[O-])S(C)(=O)=O
> 100 µM (inactive)

Attention now shifts to the item below.
Reported GI50, compound "Nc1cc(S(=O)(=O)O)cc2ccc(S(=O)(=O)O)cc12" : ____
> 100 µM (inactive)

----------
- Test system: SK-OV-3
- assay_info: NCI tumour cell line growth inhibition, 48 h
Activity calls are given as the source filed them. Cut-off read from the data, not from the text of the source: active = GI50 up to about 1.1 µM and inactive = higher.
measured_metric: GI50

Look over these answered cases.
C[C@]12CC[C@@H]3c4ccc(OC(=O)c5ccccc5)cc4CC[C@H]3[C@@H]1CC[C@@H]2Oc1c2ccccc2nc2ccccc12
20.7 µM (inactive)
Cc1ccc(/N=C2\OP(=O)(Nc3ccc(C)cc3)Oc3ccccc32)cc1 (stereo not given)
> 100 µM (inactive)
CC(C)OP(=O)(OC(C)C)C(C(C)C)N(C)/C(F)=N/C(F)(F)F (stereo not given)
> 100 µM (inactive)
N#CC(/N=N/c1ccccc1)c1nc2ccccc2o1 (stereo not given)
23.7 µM (inactive)

As a next step, examine the compound that follows.
I'm curious: which GI50 was measured for CC(O)C1(CNc2cc(Cl)nc(N)n2)CCCCC1 (stereo not given) tested on SK-OV-3?
> 100 µM (inactive)

----------
- Test system: HCT-116
- assay_info: NCI tumour cell line growth inhibition, 48 h
Active and inactive are the calls of the source. Rule as the data show it: active = GI50 up to about 1.1 µM and inactive = higher.
measured_metric: GI50

Solved entries (count: 5):
C[n+]1c2ccccc2c(CNC(CS)C(=O)O)c2ccccc21 (stereo not given)
17.5 µM (inactive)
Nc1ncnc2c1ncn2C1OC(CSCC(F)(F)F)C(O)C1O (stereo not given)
> 100 µM (inactive)
CCOc1cc(/C=N\N(C)C)cc(/C=N\N(C)C)c1O
90.6 µM (inactive)
CCOC(=O)c1cc(C(O)P2(=O)N(CC(C)(C)C)[C@@H]3CCCC[C@H]3N2CC(C)(C)C)cn1C(=O)OC(C)(C)C (stereo not given in full)
11.2 µM (inactive)
CN(CCC#N)c1ccc(/C=C2\SC(=S)NC2=O)cc1
29.2 µM (inactive)

Would you kindly look at the next entry?
Entry "COc1cc(-c2c3c([nH]c(=O)c2C#N)-c2cc([N+](=O)[O-])ccc2CCC3)cc(OC)c1OC" , system HCT-116: what GI50 was measured?
18.8 µM (inactive)

----------
- Test system: SK-MEL-5
- assay_info: NCI tumour cell line growth inhibition, 48 h
Calls of active or inactive are those of the source. Rule as the data show it: active = GI50 up to about 1.1 µM and inactive = higher.
measured_metric: GI50

Check out these entries, answers already filled in.
Nc1ccc2c3c1cccc3c(=O)n1c3ccc(Cc4ccc5c(c4)nc4c6ccc(N)c7cccc(c(=O)n54)c76)cc3nc21
> 100 µM (inactive)
COc1ccc2c(c1)c1c(C)c3cnccc3c(C)c1n2CCCN
0.383 µM (active)
COC1OC(CO)C(O)C(NC(=O)N(C)N=O)C1O (stereo not given)
> 100 µM (inactive)
COc1ccc(NC(S)=Nc2cccc(C)n2)cc1
> 100 µM (inactive)
CCCNC1=C(C)C(=O)C2=C(C1=O)[C@H](COC(N)=O)[C@]1(OC)[C@@H]3N[C@@H]3CN21
0.65 µM (active)
CCOC(=O)c1ccc2c(=O)n3c(C(=O)OCC)ccc3c(=O)n12
> 100 µM (inactive)
C=C1CCC(OC(C)=O)C2(C)C(OC(C)=O)CC3OC3(C)C2C(OC(C)=O)C2C(C)C(=O)OC2C1Cl (stereo not given)
> 100 µM (inactive)
CC(O)C1(CNc2cc(Cl)nc(N)n2)CCCCC1 (stereo not given)
45.6 µM (inactive)

Bench note: what GI50 did "N=C(CC/C(N)=N/O)NO" show?
> 100 µM (inactive)

Also "OCc1cc2c(ccc3sc4ccc5sc6ccc7ncccc7c6c5c4c32)s1" ?
4.08 µM (inactive)

----------
Form field: GI50 (one value per entry).
- Tested on: CCRF-CEM
- assay_info: NCI tumour cell line growth inhibition, 48 h
Active and inactive are the calls of the source. Cut-off read from the data, not from the text of the source: active = GI50 up to about 1.1 µM and inactive = higher.

// known answers, use as guide
CC(N)(CC(O)(C(F)(F)Cl)C(F)(F)Cl)C(=O)O (centres undefined)
> 10 µM (inactive)
COCCN(C(C)=O)C1CCC2(SCCS2)c2[nH]c3ccccc3c21 (centres undefined)
> 100 µM (inactive)
O=C(C(=O)n1ccc2ccccc21)c1c[nH]c2ccccc12
> 10 µM (inactive)
CSCCC(NC(=O)C(Cc1ccccc1)NC(=O)CNC(=O)CNC(=O)C(N)Cc1ccc(O)cc1)C(=O)O (centres undefined)
> 100 µM (inactive)
COc1ccc2c(c1O)C(=O)C(CCC(=O)O)CC2 (centres undefined)
> 100 µM (inactive)

# get_value(readout='GI50', item= "CN(C)CCNc1ccc(NCCN(C)C)c2c1C(=O)c1ncsc1C2=O" )
3.08 µM (inactive)

Moving on to CCOC(=O)CCC(NC(=O)Cc1ccc(Nc2nc3ccccc3nc2-c2ccccc2)cc1)C(=O)OCC (centres undefined)
> 100 µM (inactive)

Then Oc1ccc([C@H]2c3c(O)cc(O)cc3C3c4c(cc(O)cc4[C@@H]2[C@H]2c4cc(O)cc5c4C(c4cc(O)cc(O)c4[C@@H]2c2ccc(O)cc2)[C@@H](c2ccc(O)cc2)O5)O[C@@H]3c2ccc(O)cc2)cc1 (some centres undefined) ?
1.53 µM (inactive)

Now the same for "COc1cc(/C=C(\NC(=O)c2ccccc2)c2nc3cc([N+](=O)[O-])ccc3[nH]2)cc(OC)c1OC"
35.9 µM (inactive)

And then "CC1=C(C(=O)Nc2ccccc2C)C(c2ccc(C3C(C(=O)Nc4ccccc4C)=C(C)NC(C)=C3C(=O)Nc3ccccc3C)cc2)C(C(=O)Nc2ccccc2C)=C(C)N1" , what is it?
1.95 µM (inactive)

Subsequent entry: CCC(C(=O)C(=O)C(CC)P1(=O)OC(C)(C)CN1C(C)(C)C)P1(=O)OC(C)(C)CN1C(C)(C)C (centres undefined)
> 100 µM (inactive)

One more compound: Cc1ccc(N2C(N)=C(C#N)C(C#N)(C#N)C2c2ccccc2)cc1 (centres undefined)
3 µM (inactive)

Same lookup for "CCCNC1=C(C)C(=O)C2=C(C1=O)[C@H](COC(N)=O)[C@]1(OC)[C@@H]3N[C@@H]3CN21" , please.
3.16 µM (inactive)

Please do the same for OCC(O)COc1ccc(F)cc1 (centres undefined) as well.
> 100 µM (inactive)

Note, next up: "COc1ccc(-c2cc(O)c3cc4c(cc3n2)OCO4)c(OC)c1OC"
76.9 µM (inactive)

Also check CC(=O)OC1(C)C(=O)OC/C2=C/CN(C)CCC(OC(=O)C(O)(C(C)Cl)CC1C)C2=O.c1ccccc1 (centres undefined)
> 100 µM (inactive)

Another compound to look at: "CCCCCOC(=O)c1cc2cc(CCl)ccc2oc1=O"
13.1 µM (inactive)

For "CSc1nc(C)c2c(n1)SCC2" then?
> 10 µM (inactive)

Also CC(C)C1N(C)c2ccc(Cl)cc2[C@H]2c3ccccc3CCN12 (some centres undefined) , if possible.
97.9 µM (inactive)

----------
Recorded GI50, one value per entry.
- System: SF-295
- assay_info: NCI tumour cell line growth inhibition, 48 h
Active and inactive are the calls of the source. No stated cut-off is given here; in the data, active = GI50 up to about 1.1 µM and inactive = higher.

Recorded results for 10 compounds are shown here.
CC(=O)O[C@H]1CC[C@@]2(C)C(=CC[C@H]3C4=CC=C(C(C)=O)[C@@]4(C)CCC32)C1 (stereo not given in full)
41 µM (inactive)
CCNC(=O)CCN(C(=O)O)S(=O)(=O)c1ccc(NC(=O)c2ccccc2)cc1
> 100 µM (inactive)
C[C@]12CC[C@@H]3c4ccc(OC(=O)c5ccccc5)cc4CC[C@H]3[C@@H]1CC[C@@H]2Oc1c2ccccc2nc2ccccc12
16 µM (inactive)
COc1ccc(N2C(=O)[C@@H](N=[N+]=[N-])[C@@H]2[C@H]2COC(C)(C)O2)cc1
> 100 µM (inactive)
O=C(O)c1cc2ccc3ccccc3c2oc1=O
> 100 µM (inactive)
CC(=O)Oc1c(C)cc(-c2cc(C)c(OC(C)=O)c(C)c2)cc1C
23.7 µM (inactive)
C=CCN(c1cc(OC)c2[nH]c(C(=O)O)c(C)c2c1[N+](=O)[O-])S(C)(=O)=O
> 100 µM (inactive)
COC(=O)C1=C(C(=O)OC)C(C(=O)c2ccc(Br)cc2)N2N=C(c3ccc(Cl)cc3)C=CC12 (stereo not given)
67 µM (inactive)
CC1=N/C(=C\c2cccc3ccccc23)C(=O)O1
> 100 µM (inactive)
O=C(O)c1ccccc1CC(Cc1ccc2c(c1)CCC2)C(=O)O (stereo not given)
> 100 µM (inactive)

# query: GI50 of entry COc1cc(CC2c3cc(OC)c(OC)cc3CCN2C)c(Oc2cc3c(cc2OC)-c2c(OC)c(OC)c(OC)c4c2C(C3)N(C)CC4)cc1OC (stereo not given)
14.6 µM (inactive)

Another compound: "Nc1c(-c2nc3ccccc3[nH]2)sc(=S)n1-c1ccc(Cl)cc1"
22.9 µM (inactive)

Now the same for "COc1cc([C@@H]2c3cc4c(cc3[C@@H](/N=C/c3ccc(C(=O)O[C@@H](C(=O)O[C@H]5C[C@@]6(O)[C@@H](OC(=O)c7ccccc7)[C@@H]7[C@]8(OC(C)=O)CO[C@@H]8C[C@H](O)[C@@]7(C)C(=O)[C@H](OC(C)=O)C(=C5C)C6(C)C)[C@@H](NC(=O)c5ccccc5)c5ccccc5)cc3)[C@H]3COC(=O)[C@H]23)OCO4)cc(OC)c1O"
0.171 µM (active)

Also check "O=C(Nc1nn(C(=O)c2cccnc2)c(=O)s1)c1ccc(Cl)cc1"
46.3 µM (inactive)

Moving on to the next compound: "Cc1cn2c(/C=C3/C(=O)Nc4cccc(Cl)c43)c(Cl)nc2s1"
36.3 µM (inactive)

Same question, "O=C(CCc1ccccc1)NCCc1ccc(O)c(O)c1" this time
> 53.3 µM (inactive)

Also S=C1C(CCCOCc2ccccc2)C2CCCC23CC2(CCN13)OCCS2 (stereo not given) , if possible.
> 10 µM (inactive)

Same again, this time with O=C(Nc1ccccc1C(=O)O)C(=O)C(C(=O)c1ccccc1-c1ccccc1)C1OC(=O)c2ccccc21 (stereo not given)
25.2 µM (inactive)

Please give the result for COc1ccc(C(=O)C(C(=O)C(=O)Nc2nc3ccc(OC)cc3s2)c2ccc(OC)cc2)cc1 (stereo not given) too.
> 100 µM (inactive)

Now try COC1=C2CC(C)CC(OC)C(OC(=O)CCCN)C(C)/C=C(\C)C(OC(N)=O)C(OC)/C=C\C=C(/C)C(=O)NC(=CC1=O)C2=O (stereo not given) .
16.9 µM (inactive)

// same read-out, input: O=C1OC(C2Cc3ccc4ccccc4c3C2=O)c2ccccc21 (stereo not given)
32.4 µM (inactive)

"O=C(O)CCC(=O)c1ccc(Cl)cc1" ?
> 100 µM (inactive)

And COc1cc(C2SCC(=O)N2c2cc(Cl)c(Cl)cc2Cl)cc(OC)c1OC (stereo not given) ?
49.8 µM (inactive)

And the next one, Cc1ccc(/N=C2\OP(=O)(Nc3ccc(C)cc3)Oc3ccccc32)cc1 (stereo not given) ?
> 100 µM (inactive)

Entry "Nc1ccn(CCOC(=O)c2ccccc2)c(=O)n1" please
> 100 µM (inactive)

Repeat for the following compound: CN(C(=O)C12C3C4C1C1C2C3C41C(=O)N(C)C(C)(C)C)C(C)(C)C (stereo not given)
> 50 µM (inactive)

Field entry: COC(=O)c1ccccc1C1CN=NC12Cc1ccc3c(c1C2=O)CCC3 (stereo not given)
70.6 µM (inactive)

Also, "N=C(CC/C(N)=N/O)NO" please.
> 100 µM (inactive)
